Catalogue of compounds with associated IC50
Target: Coagulation factor X (Homo sapiens)
Experiment: Inhibition Assay
Numeric only. Scale: nM

I'm curious: which IC50 was measured for Cc1ccc(NC(=O)N2CCCC2C(=O)Nc2ccc(-c3ccccc3S(N)(=O)=O)cc2F)cc1F (centres undefined) [P1 Phenyl Ring, 25] tested on Coagulation factor X (Homo sapiens)?
516

Query compound follows.
Field: IC50 (Coagulation factor X (Homo sapiens)). Entry: NS(=O)(=O)c1ccccc1-c1ccc(NC(=O)C2CCCN2C(=O)Nc2ccc(Br)cc2)c(F)c1 (centres undefined) [P1 Phenyl Ring, 22]
33

###

Target: Coagulation factor X (Homo sapiens)
QUANTITY_NAME: log10 of IC50 (log10 of the value in nM)
Annotation: log10 of IC50, nM basis.

Below: 4 compounds and their reported log10 of IC50.
I am curious: what log10 of IC50 value has been reported for CS(=O)(=O)c1ccccc1-c1ccc(NC(=O)[C@H]2CC(O)CN2C(=O)Nc2ccc(F)cc2)c(F)c1 (stereo partly specified) ?
0.88

Using the record for CS(=O)(=O)c1ccccc1-c1ccc(NC(=O)[C@H]2CC(F)(F)CN2C(=O)Nc2ccc(Cl)cc2)c(F)c1 , report its log10 of IC50.
0.70

Consider the compound shown here: CS(=O)(=O)c1ccccc1-c1ccc(NC(=O)[C@H]2CC(=O)CN2C(=O)Nc2ccc(Cl)cc2)c(F)c1 What is its recorded log10 of IC50?
0.46

Consider the compound Cc1ccc(NC(=O)N2CCCC2C(=O)Nc2ccc(-c3ccccc3S(N)(=O)=O)cc2F)cc1 (stereo unspecified) [P1 Phenyl Ring, 24] and give its measured log10 of IC50.
2.59

Continue with the compound presented below.
Requested field: log10 of IC50. Item: COc1ccc(NC(=O)N2CCCC2C(=O)Nc2ccc(-c3ccccc3S(N)(=O)=O)cc2F)cc1 (stereo unspecified) [P1 Phenyl Ring, 26]
2.94

###

Target: Coagulation factor X (Homo sapiens, UniProt P00742)
Sequence (P00742 41-179 limits assumed): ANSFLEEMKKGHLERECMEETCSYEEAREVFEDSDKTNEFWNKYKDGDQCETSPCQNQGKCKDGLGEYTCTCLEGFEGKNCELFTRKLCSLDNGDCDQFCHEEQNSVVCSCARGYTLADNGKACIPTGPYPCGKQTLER
Sequence (P00742 235-488 limits assumed): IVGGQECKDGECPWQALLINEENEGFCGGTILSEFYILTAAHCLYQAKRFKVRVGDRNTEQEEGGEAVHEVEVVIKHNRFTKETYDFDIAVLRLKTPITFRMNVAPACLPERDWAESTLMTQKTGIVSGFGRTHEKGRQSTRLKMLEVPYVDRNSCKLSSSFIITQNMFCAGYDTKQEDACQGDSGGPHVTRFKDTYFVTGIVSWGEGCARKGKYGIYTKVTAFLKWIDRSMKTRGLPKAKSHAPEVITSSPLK
Reported IC50 by item:

What measured IC50 goes with NS(=O)(=O)c1ccccc1-c1ccc(NC(=O)C2CCCN2C(=O)Nc2ccccc2)c(F)c1 (centres undefined) [P1 Phenyl Ring, 27] ?
0.951 µM

What value of IC50 has been reported for the following compound? NS(=O)(=O)c1ccccc1-c1ccc(NC(=O)C2CCCN2C(=O)Nc2ccc(C(F)(F)F)cc2)c(F)c1 (centres undefined) [P1 Phenyl Ring, 31]
> 4 µM

---
Item under review: CCc1ccc(NC(=O)N2CCCC2C(=O)Nc2ccc(-c3ccccc3S(N)(=O)=O)cc2F)cc1 (centres undefined) [P1 Phenyl Ring, 30] . Reported IC50?
> 4 µM

What does the data say about its IC50? Entry: NS(=O)(=O)c1ccccc1-c1ccc(NC(=O)C2CCCN2C(=O)Nc2cccc(Cl)c2)c(F)c1 (centres undefined) [P1 Phenyl Ring, 28]
> 4 µM
